The measurements presented in this section are drawn from ChEMBL document CHEMBL1201862.

system: SR; test: NCI tumour cell line growth inhibition, 48 h
Activity calls are given as the source filed them. Cut-off read from the data, not from the text of the source: active = GI50 up to about 1.1 µM and inactive = higher.
RECORDED_ENDPOINT: GI50

>>> result("CCOP1(=O)CC(C)=C(Cl)C(O)C1 (configuration not stated)")
"> 100 µM (inactive)"

Record summary for COc1cc(OC)c2c(c1OC)OCC(Cc1ccc(O)cc1)C2=O (configuration not stated) : reported GI50 = > 25 µM (inactive)

Record summary for "C[C@@H]1S[C@H](c2c(F)cccc2Cl)n2c1nc1ccccc12" : reported GI50 = 7.23 µM (inactive)

Record summary for Cc1nn(C(=O)c2ccc(Cl)cc2)c2c1C(c1ccccc1)SC(=N)N2 (configuration not stated) : reported GI50 = > 10 µM (inactive)

Record summary for C=C1CC2OC2(C(=O)O[C@H]2CCC3[C@@H]4CCC5=CC(=O)CC[C@]5(C)C4CC[C@@]32C)C1=O (some centres not stated) : reported GI50 = 0.805 µM (active)

Record summary for "Cc1ccc(S(=O)(=O)N2CCC(C(=O)O)(c3ccccc3)CC2)cc1" : reported GI50 = > 100 µM (inactive)

Record summary for COC(=O)C1=C(OC(=O)/C=C/c2ccccc2)C(C(=O)OC)[C@@]2(O)[C@@H](C(=O)OC)[C@H](C)C[C@@H]1[C@@H]2C(=O)OC (some centres not stated) : reported GI50 = > 100 µM (inactive)

Record summary for "CC(=O)c1nc2ccccc2n1CC(=O)c1ccc(Cl)cc1" : reported GI50 = 4.84 µM (inactive)

Record summary for CC1C2CCC3C(O)C2(CC(O)C2(O)C1CC(O)C2(C)C)CC3(C)O (configuration not stated) : reported GI50 = > 100 µM (inactive)

Record summary for "c1ccc(C2(c3cc4ccccc4[nH]3)OCCO2)cc1" : reported GI50 = 22.4 µM (inactive)

Record summary for "C[C@]12CC[C@@H]3c4ccc(O)cc4CC[C@H]3[C@@H]1C/C(=C\c1ccc(C#N)cc1)C2=O" : reported GI50 = 50 µM (inactive)

Record summary for O=C(Cc1ccccc1)NN1C(=O)C(Cl)C1c1ccccc1Cl (configuration not stated) : reported GI50 = 23.2 µM (inactive)

Record summary for "CCN(CC)C(=O)COc1ccc(Br)cc1Br" : reported GI50 = > 100 µM (inactive)

Record summary for O=C1CCc2cc3c(cc21)C(C(=O)O)CC3 (configuration not stated) : reported GI50 = > 100 µM (inactive)

Record summary for CCCCN(CCCC)CC(C(C)=O)C(c1ccccc1)c1c(O)c2ccccc2oc1=O (configuration not stated) : reported GI50 = > 100 µM (inactive)

---

tested on: OVCAR-3; assay: NCI tumour cell line growth inhibition, 48 h
Counter-ions that a name gives are not always drawn. Activity calls are given as the source filed them. Cut-off read from the data, not from the text of the source: active = GI50 up to about 1.1 µM and inactive = higher.
Output constraint: value belongs to active, inactive

Observe how each entry below is paired with its result.
>>> label("CC[C@@H]1C(=O)OC[C@@H]1Cc1cncn1C [PILOCARPINE HYDROCHLORIDE]")
"inactive"
>>> label("CC12CC(Sc3ccccc3N1)c1ccccc1O2 (stereo not given)")
"inactive"
>>> label("C[C@@H]1S[C@H](c2c(F)cccc2Cl)n2c1nc1ccccc12")
"inactive"
>>> label("CCCc1cn2c(/C=N/NC(=N)N)c(-c3cccc([N+](=O)[O-])c3)nc2s1")
"inactive"
>>> label("Cc1ccc(-c2nc(Cc3n[nH]c(-c4ccc(C)cc4)n3)n[nH]2)cc1")
"inactive"

Each compound tested received a call. Report the one for "N#C/C(=C(\O)C(=O)O)c1ccc(-c2cccc3ccccc23)cc1" . inactive

Each compound tested received a call. Report the one for "COc1ccc(NC/C=C/C(=C/COC(C)=O)OC(C)=O)cc1" . inactive

Each compound tested received a call. Report the one for "CC1(C)N=C(N)N=C(N)N1c1ccc(CCCCCCc2ccc(S(=O)(=O)F)cc2)cc1" . active

Each compound tested received a call. Report the one for O=C1C(=Cc2ccco2)C(=O)C2CCCCC12 (stereo not given) . inactive

Each compound tested received a call. Report the one for O=C([O-])C(O)C(O)C(=O)O.[K+] (stereo not given) [POTASSIUM HYDROGENTARTRATE] . inactive

---

system: SF-268; test: NCI tumour cell line growth inhibition, 48 h
The source made the active and inactive calls. No stated cut-off is given here; in the data, active = GI50 up to about 1.1 µM and inactive = higher.
Output constraint: value belongs to t for active, f for inactive

Observe how each entry below is paired with its result.
>>> label("CC1(C)COC(c2cccc3c2C(=O)c2cccc(Cl)c2-3)=N1")
"f"
>>> label("C[S+](C)C1(c2ccccc2)C(=O)c2ccccc2C1=O")
"f"
>>> label("CC1=C(O)C(O)=C(C2=C(O)C(O)=C(C)C(=O)C2=O)C(=O)C1=O")
"f"
>>> label("c1csc(-c2cscc2-c2ccsc2)c1")
"f"
>>> label("CCCCNc1c(CN)cnc2cc(Cl)ccc12")
"f"
>>> label("O=C1C=C(Nc2ccc(Br)cc2)c2ccccc2C1=O")
"f"
>>> label("CCP(C)(C)=O")
"f"
>>> label("Cc1cc2c(cc1C)[n+]([O-])c(C(=O)C/C(=N/NC(=O)CC#N)C(=O)Nc1ccccc1C(F)(F)F)c(C)[n+]2[O-]")
"f"

Each compound tested received a call. Report the one for CN1C(=O)C2C(=O)N(Cc3ccccc3)CC(=O)N2c2cccnc21 (configuration not stated) . f

Each compound tested received a call. Report the one for COCC(/N=C\N1CCCc2ccccc2[C@@H]1CCCCl)C(C)(C)C (some centres not stated) . f

---

GI50: recorded values
test system: 786-0; assay: NCI tumour cell line growth inhibition, 48 h
Activity calls are given as the source filed them. Rule as the data show it: active = GI50 up to about 1.1 µM and inactive = higher. Square brackets hold non-standard residues; d marks the D form. Peptide text beside a SMILES is read from it. * marks the point of attachment. AllylGly = C=CC[CH](N)C(=O)O; Boc = CC(C)(C)OC(=O)*; OtBu = CC(C)(C)O*

>>> result("CCCCNc1c(CN)cnc2cc(Cl)ccc12")
"16.7 µM (inactive)"
>>> result("CCN(CC)CCC(=O)c1ccc(Cl)c(Cl)c1")
"17.5 µM (inactive)"
>>> result("C=CCC(NC(=O)C(CC(=O)OC(C)(C)C)NC(=O)OC(C)(C)C)C(=O)OC (stereo unspecified) (Boc-Asp(OtBu)-[AllylGly]-OMe; configuration not given here)")
"> 100 µM (inactive)"
>>> result("O=C(Nn1cnn2c(=O)c3ccccc3nc2c1=O)c1ccccc1")
"> 100 µM (inactive)"
>>> result("COc1ccc(CC2c3cc(Oc4cc(CC5c6cc(OC)c(OC)cc6CCN5C)ccc4O)c(OC)cc3CCN2C)cc1 (stereo unspecified)")
"3.02 µM (inactive)"

Record summary for c1ccc2c(OCC3CO3)ccc(OCC3CO3)c2c1 (stereo unspecified) : reported GI50 = 2.11 µM (inactive)

Record summary for "COC(=O)c1cc2ccc(O)c(O)c2cn1" : reported GI50 = 2.7 µM (inactive)

Record summary for "O=c1c2cc(I)ccc2nc(Sc2ncccc2[N+](=O)[O-])n1Cc1ccccc1" : reported GI50 = 23.2 µM (inactive)

Record summary for COc1ccc2c(c1OC)CN1CCc3cc4c(cc3C1C2)OCO4 (stereo unspecified) [TETRAHYDROBERBERINE] : reported GI50 = > 100 µM (inactive)

Record summary for CC1C2CCC3C(O)C2(CC(O)C2(O)C1CC(O)C2(C)C)CC3(C)O (stereo unspecified) : reported GI50 = > 100 µM (inactive)

Record summary for "NS(=O)(=O)c1ccc(NCc2cnc3ccccc3n2)cc1" : reported GI50 = > 100 µM (inactive)

---

test system: OVCAR-5; assay: NCI tumour cell line growth inhibition, 48 h
Activity calls are given as the source filed them. No stated cut-off is given here; in the data, active = GI50 up to about 1.1 µM and inactive = higher.
GI50: recorded values

Observe how each entry below is paired with its result.
>>> result("CCCCCCc1cc2cc(-c3cn4ccccc4n3)c(=O)oc2cc1O")
"21.8 µM (inactive)"
>>> result("N/N=C1\\C(OC(=O)Nc2cccc(Cl)c2)=Nc2ccccc21")
"14 µM (inactive)"
>>> result("CC(=O)Oc1cc2c(cc1OC(C)=O)OCC(c1ccccc1)C2 (stereo not given)")
"33.3 µM (inactive)"

Record summary for "C=CCN(c1cc(OCc2ccccc2)c2[nH]cc(C)c2c1)S(C)(=O)=O" : reported GI50 = 79.8 µM (inactive)

Record summary for CC12CC3(O)OC(O1)C1(COC(=O)c4ccccc4)C3CC21OC1OC(CO)C(O)C(O)C1O (stereo not given) : reported GI50 = > 100 µM (inactive)

Record summary for "CCOc1ccc(NC(=O)C2=C(C)NC(C)=C(C(=O)Nc3ccc(OCC)cc3)C2c2ccccc2)cc1" : reported GI50 = > 100 µM (inactive)

Record summary for N#CCc1ccc(/C(C#N)=C2/OC(=N)C(c3ccc(CC#N)cc3)C2=O)cc1 (stereo not given) : reported GI50 = > 100 µM (inactive)

Record summary for "Cc1c(Cl)cccc1NC(=O)c1cccc([N+](=O)[O-])c1O" : reported GI50 = > 43 µM (inactive)
